PROTOCOL: OPTISAFE in vitro ocular irritation test, original formulation without antioxidants
EXPERIMENTAL SETUP: ROS/CL chemicals; triplicate assays
OPTISAFE (no antioxidant) Score AVG vs 30: at or above is YES, below is NO.

# COMPOUND, GROUP LABEL
measured = [
    ("C=C(C)C(=O)OCCOCC [2-Ethoxyethyl methacrylate]", "YES"),
    ("C=Cc1ccccc1 [Styrene]", "YES"),
    ("CCOCCOCC [Ethylene glycol diethyl ether]", "NO"),
    ("CCOCCOCCO [2-(2-Ethoxyethoxy)ethanol]", "NO"),
    ("C=CCCCCCCC=C [1,9-Decadiene]", "NO"),
    ("OCCOCCOCCO [Triethylene glycol]", "NO"),
]
